Reference source for all entries: the Deep4Chem optical property database

Please respond with reported absorption maximum for every item in the list.
- method: solvent given as SMILES
- assaySetup: in CC#N
Answers are plain numbers, in nm.

Solved cases below.
{"compound": "CN(C)c1ccc(C2=Cc3c4ccccc4c4ccccc4[n+]3[B-](F)(F)O2)cc1", "numericReadout": 476}
{"compound": "Cc1cc2nc3c(=O)n(C)c(=O)n(C)c3nc2cc1C", "numericReadout": 375}
{"compound": "CNC(=O)[C@H](C)NC(=O)c1cccc2c1C#Cc1c(N)cccc1OCCCO2", "numericReadout": 347}
{"compound": "O=P1(c2ccccc2)C2=C(c3ccccc31)S(=O)(=O)c1ccccc12 (stereo not drawn)", "numericReadout": 383}

I have 5 compounds here; please give me absorption maximum for each one.
1. COc1cc2c(cc1/C=C/C1=CC(=C(C#N)C#N)CC(C)(C)C1)c1ccccc1n2C
2. C[n+]1ccn(CCCCc2ccc3c(c2)c2ccccc2n3-c2cc(C#N)c(C#N)cc2-n2c3ccccc3c3cc(CCCCn4cc[n+](C)c4)ccc32)c1
3. N#Cc1ccc(N)c2nonc12
4. COc1ccc(-c2nc3c(c4c2-c2ccccc2CC4)-c2ccccc2CC3)cc1
5. CCOC(=O)CN(CC(=O)OCC)c1ccc(-c2cc(-c3cccnc3)nc(-c3cccnc3)c2)cc1

Output:
1: 477; 2: 368.93; 3: 421; 4: 321; 5: 328
